Exercise: state measured glass transition temperature for each of the compounds provided.

Worked cases, answers included:
>  <COMPOUND>
*Oc1cccc(Oc2ccc(Oc3cccc4c3C(=O)N(c3ccc(Oc5ccc(N6C(=O)c7cccc(*)c7C6=O)cc5)cc3)C4=O)cc2)c1 (repeat unit)

>  <glass transition temperature>
239.00 °C

$$$$
>  <COMPOUND>
*Oc1cccc(Sc2ccc(Oc3ccc4c(c3)C(=O)N(c3ccc(Oc5cccc(Oc6ccc(N7C(=O)c8ccc(*)cc8C7=O)cc6)c5)cc3)C4=O)cc2)c1 (repeat unit)

>  <glass transition temperature>
219.00 °C

$$$$
>  <COMPOUND>
*Oc1ccc2ccccc2c1-c1c(Oc2ccc3c(c2)C(=O)N(c2ccc(Oc4ccc(N5C(=O)c6ccc(*)cc6C5=O)cc4)cc2)C3=O)ccc2ccccc12 (repeat unit)

>  <glass transition temperature>
274.00 °C

$$$$
>  <COMPOUND>
*C(=O)c1ccc2c(c1)C(=O)N(c1ccccc1Oc1ccccc1N1C(=O)c3ccc(*)cc3C1=O)C2=O (repeat unit)

>  <glass transition temperature>
289.00 °C

$$$$

Looking for the measured glass transition temperature of *C(=O)c1ccc2c(c1)C(=O)N(c1c(C)cc(CC)c(N3C(=O)c4ccc(*)cc4C3=O)c1CC)C2=O (repeat unit) , can you help?
385.00 °C
